settings: siRNA; further: test system not given here
HELM strings list units from the 5' end as sugar, base in round brackets, then linkage (d deoxyribose, r ribose, m 2'-O-methyl, p phosphodiester). Strings are as the collection lists them, not checked against the first reports. ss, as = sense and antisense strand
ENDPOINT LABEL: target mRNA knockdown (%)
Use % as the unit, but write only the number.

Which target mRNA knockdown reading was recorded for the substance RNA1{m(U)p.r(U)p.m(U)p.r(G)p.m(A)p.r(U)p.m(C)p.r(A)p.m(G)p.r(C)p.m(G)p.r(G)p.m(A)p.r(G)p.m(A)p.r(C)p.m(U)p.r(C)p.m(G)p.r(T)p.r(T)}|RNA2{r(C)p.r(G)p.r(A)p.r(G)p.r(U)p.r(C)p.r(U)p.r(C)p.r(C)p.m(G)p.r(C)p.r(U)p.r(G)p.r(A)p.m(U)p.r(C)p.r(A)p.r(A)p.r(A)p.r(T)p.r(T)}$$$RNA1{StrandType:ss}|RNA2{StrandType:as}$ ? 49

----------
conditions: siRNA
HELM strings list units from the 5' end as sugar, base in round brackets, then linkage (d deoxyribose, r ribose, m 2'-O-methyl, p phosphodiester). Strings are as the collection lists them, not checked against the first reports. ss, as = sense and antisense strand; [s4r] = 4'-thioribose; [fl2r] = 2'-fluoro
Measured target mRNA knockdown accompanies every entry in the list below.
Use % as the unit, but write only the number.

Examples with their reported target mRNA knockdown follow.
Which target mRNA knockdown reading was recorded for the substance RNA1{[fl2r](G)p.r(C)p.[fl2r](U)p.r(A)p.[fl2r](C)p.r(C)p.[fl2r](G)p.r(C)p.[fl2r](A)p.r(A)p.[fl2r](C)p.r(C)p.[fl2r](A)p.r(C)p.[fl2r](G)p.r(A)p.[fl2r](G)p.r(C)p.[fl2r](U)p.r(T)p.r(T)}|RNA2{r(A)p.r(G)p.r(C)p.r(U)p.r(C)p.r(G)p.r(U)p.r(G)p.r(G)p.r(U)p.r(U)p.r(G)p.r(C)p.r(G)p.r(G)p.r(U)p.r(A)p.r(G)p.r(C)p.r(T)p.r(T)}$$$RNA1{StrandType:ss}|RNA2{StrandType:as}$ ? 21

Which target mRNA knockdown reading was recorded for the substance RNA1{r(G)p.r(G)p.r(G)p.r(A)p.r(A)p.r(A)p.r(C)p.r(U)p.r(G)p.r(A)p.r(A)p.r(A)p.r(G)p.r(G)p.r(C)p.r(U)p.r(A)p.r(U)p.r(G)p.r(T)p.r(T)}|RNA2{[fl2r](C)p.r(A)p.[fl2r](U)p.r(A)p.r(G)p.[fl2r](C)p.[fl2r](C)p.[fl2r](U)p.[fl2r](U)p.[fl2r](U)p.[fl2r](C)p.r(A)p.r(G)p.[fl2r](U)p.[fl2r](U)p.[fl2r](U)p.[fl2r](C)p.[fl2r](C)p.[fl2r](C)p.r(T)p.r(T)}$$$RNA1{StrandType:ss}|RNA2{StrandType:as}$ ? 6

Which target mRNA knockdown reading was recorded for the substance RNA1{[s4r](A)p.[s4r](A)p.[s4r](A)p.[s4r](C)p.r(A)p.r(U)p.r(G)p.r(C)p.r(A)p.r(G)p.r(A)p.r(A)p.r(A)p.r(A)p.r(U)p.[s4r](A)p.[s4r](C)p.[s4r](C)p.[s4r](U)p.r(T)p.r(T)}|RNA2{[s4r](C)p.[s4r](A)p.r(G)p.r(C)p.r(A)p.r(U)p.r(U)p.r(U)p.r(U)p.r(C)p.r(U)p.r(G)p.r(C)p.r(A)p.r(U)p.r(G)p.r(U)p.[s4r](U)p.[s4r](U)p.r(T)p.r(T)}$$$RNA1{StrandType:ss}|RNA2{StrandType:as}$ ? 80.8

New cases:
Which target mRNA knockdown reading was recorded for the substance RNA1{[fl2r](A)p.r(G)p.[fl2r](C)p.r(C)p.[fl2r](U)p.r(C)p.[fl2r](C)p.r(A)p.[fl2r](A)p.r(A)p.[fl2r](C)p.r(U)p.[fl2r](C)p.r(C)p.[fl2r](U)p.r(A)p.[fl2r](G)p.r(C)p.[fl2r](U)p.r(T)p.r(T)}|RNA2{r(A)p.r(G)p.r(C)p.r(U)p.r(A)p.r(G)p.r(G)p.r(A)p.r(G)p.r(U)p.r(U)p.r(U)p.r(G)p.r(G)p.r(A)p.r(G)p.r(G)p.r(C)p.r(U)p.r(T)p.r(T)}$$$RNA1{StrandType:ss}|RNA2{StrandType:as}$ ? 16

----------
conditions: siRNA
HELM strings list units from the 5' end as sugar, base in round brackets, then linkage (d deoxyribose, r ribose, m 2'-O-methyl, p phosphodiester). Strings are as the collection lists them, not checked against the first reports. ss, as = sense and antisense strand; [lna] = locked nucleic acid (LNA); [fl2r] = 2'-fluoro
Grouping rule (target mRNA knockdown): bucket A = under 70%, bucket B = from 70% up to 80%, bucket C = 80% and over

Solved entries (count: 5):
Please indicate the class for RNA1{[fl2r](U)p.r(A)p.r(A)p.r(C)p.r(C)p.r(C)p.r(C)p.r(A)p.r(A)p.r(G)p.r(A)p.r(A)p.r(C)p.r(G)p.r(G)p.r(G)p.r(C)p.r(U)p.r(U)p.r(T)p.r(T)}|RNA2{r(A)p.r(A)p.r(G)p.r(C)p.r(C)p.r(C)p.r(G)p.r(U)p.r(U)p.r(C)p.r(U)p.r(U)p.r(G)p.r(G)p.r(G)p.r(G)p.r(U)p.[fl2r](U)p.r(A)p.r(T)p.r(T)}$$$RNA1{StrandType:ss}|RNA2{StrandType:as}$ based on its target mRNA knockdown. bucket B

Please indicate the class for RNA1{r(A)p.m(A)p.r(G)p.m(G)p.r(A)p.m(G)p.r(A)p.m(U)p.r(C)p.m(A)p.r(A)p.m(C)p.r(A)p.m(U)p.r(U)p.m(U)p.r(U)p.m(C)p.r(A)p.r(T)p.r(T)}|RNA2{r(U)p.m(G)p.r(A)p.m(A)p.r(A)p.m(A)p.r(U)p.m(G)p.r(U)p.m(U)p.r(G)p.m(A)p.r(U)p.m(C)p.r(U)p.m(C)p.r(C)p.m(U)p.r(U)p.r(T)p.r(T)}$$$RNA1{StrandType:ss}|RNA2{StrandType:as}$ based on its target mRNA knockdown. bucket A

Please indicate the class for RNA1{r(G)p.r(A)p.m(U)p.r(A)p.r(G)p.r(G)p.r(A)p.r(A)p.r(G)p.r(G)p.r(G)p.m(G)p.r(C)p.r(U)p.r(U)p.m(C)p.r(A)p.r(G)p.r(C)p.r(T)p.r(T)}|RNA2{r(G)p.r(C)p.m(U)p.r(G)p.r(A)p.r(A)p.r(G)p.r(C)p.r(C)p.r(C)p.r(C)p.r(U)p.r(U)p.r(C)p.r(C)p.m(U)p.r(A)p.r(U)p.r(C)p.r(T)p.r(T)}$$$RNA1{StrandType:ss}|RNA2{StrandType:as}$ based on its target mRNA knockdown. bucket A

Please indicate the class for RNA1{r(A)p.r(U)p.r(C)p.m(U)p.r(A)p.r(C)p.r(C)p.m(C)p.r(A)p.r(G)p.r(C)p.r(U)p.r(C)p.m(U)p.r(C)p.r(C)p.r(C)p.r(U)p.r(U)p.r(T)p.r(T)}|RNA2{r(A)p.r(A)p.r(G)p.r(G)p.r(G)p.r(A)p.r(G)p.r(A)p.r(G)p.r(C)p.m(U)p.r(G)p.r(G)p.r(G)p.m(U)p.r(A)p.r(G)p.r(A)p.r(U)p.r(T)p.r(T)}$$$RNA1{StrandType:ss}|RNA2{StrandType:as}$ based on its target mRNA knockdown. bucket B

Please indicate the class for RNA1{[lna](G)p.r(C)p.r(A)p.r(G)p.r(C)p.r(A)p.r(C)p.r(G)p.r(A)p.r(C)p.r(U)p.r(U)p.r(C)p.r(U)p.r(U)p.r(C)p.r(A)p.r(A)p.r(G)p.r(U)p.r(U)}|RNA2{r(C)p.r(U)p.r(U)p.r(G)p.r(A)p.r(A)p.r(G)p.r(A)p.r(A)p.r(G)p.r(U)p.r(C)p.r(G)p.r(U)p.r(G)p.r(C)p.r(U)p.r(G)p.r(C)p.r(U)p.r(U)}$$$RNA1{StrandType:ss}|RNA2{StrandType:as}$ based on its target mRNA knockdown. bucket B

New cases:
Please indicate the class for RNA1{[lna](G)p.r(G)p.r(C)p.r(C)p.r(U)p.r(U)p.r(U)p.r(C)p.r(A)p.r(C)p.r(U)p.r(A)p.r(C)p.r(U)p.r(C)p.r(C)p.r(U)p.r(A)p.r(C)p.[lna](G)p.[lna](A)}|RNA2{r(G)p.r(U)p.r(A)p.r(G)p.r(G)p.r(A)p.r(G)p.r(U)p.r(A)p.r(G)p.r(U)p.r(G)p.r(A)p.r(A)p.r(A)p.r(G)p.r(G)p.r(C)p.r(C)p.r(A)p.r(G)}$$$RNA1{StrandType:ss}|RNA2{StrandType:as}$ based on its target mRNA knockdown. bucket C
